I'd be grateful if you could share measured pest or weed control at 1000 g/ha for these entries.
test system: weeds and/or crops; assay: Post-emergence biological efficacy (Table 4); type: in vivo; conditions: Amaranthus retroflexus, 312 h, AMARE, 1000 g/ha, evaluated after 13 days, read-out: damage to plant AMARE (100=total damage; 0=no damage)
Give bare numbers, in %.

molecule	result.unit	numeric.value
COc1c(Cl)cc(Cl)c(Cl)c1C(F)(F)C(=O)O [Compound 1-82]	%	60
C=Cc1cccc(C(F)(F)C(=O)O)c1Cl [Compound 1-207]	%	70
Cc1cccc(C(F)(F)C(=O)O)c1C#N [Compound 1-462]	%	80
Cc1noc2ccc(Cl)c(C(F)(F)C(=O)O)c12 [Compound 1-395]	%	40
Nc1ccc(Cl)c(C(F)(F)C(=O)O)c1Cl [Compound 1-236]	%	30
O=C(O)C(F)(F)c1c(Cl)ccc2c1OC(F)(F)O2 [Compound 1-389]	%	80
Cc1c(C#N)cccc1C(F)(F)C(=O)O [Compound 1-244]	%	90

// fetch pest or weed control at 1000 g/ha given entry O=C(O)C(F)(F)c1cccc2cccc(Cl)c12 [Compound 1-416]
80

----------
test system: AMARE; experiment: Biological efficacy, post-emergence glasshouse test (Table 2); assay type: in vivo; details: 1000 g/ha, after 12 days
metric: score (100=total damage to plant, 0=no damage to plant)
Give bare numbers.

The following molecules have reported results that may help.
N#Cc1ccccc1C(F)(F)C(=O)[O-].[Li+] 70
COc1ccc(F)cc1C(F)(F)C(=O)O 70
O=C(O)C(F)(F)c1ccc(OC(F)(F)F)cc1 70
CC(C)(C)c1ccc(C(F)(F)C(=O)O)cc1 40

// fetch score (100=total damage to plant, 0=no damage to plant) given entry N#Cc1cccc(C(F)(F)C(=O)O)c1
60

----------
tested on: AMARE; assay: Pre-emergence biological efficacy (Table 3); type: in vivo; settings: Amaranthus retroflexus, 312 h, 1000 g/ha, after 13 days, read-out: evaluation (100=total damage to plant; 0=no damage to plant)
metric: pest or weed control at 1000 g/ha (%)
Answers are plain numbers, in %.

O=C(O)C(F)(F)c1cccc2c1CCO2 80
O=C(O)C(F)(F)c1cc(-c2ccc(F)cc2)cc(Cl)c1Cl 0
C=Cc1cccc(C(F)(F)C(=O)O)c1Cl 80
COc1c(F)ccc(F)c1C(F)(F)C(=O)O 0

Report pest or weed control at 1000 g/ha for each item below.
1. CCOC(=O)C(F)(F)c1c(F)ccc(F)c1O
2. O=C(O)C(F)(F)c1cccc(Cl)c1OC(F)F

1: 0; 2: 50

----------
test system: SETFA; test: Pre-emergence biological efficacy (Table 3); type: in vivo; settings: Setaria faberi, 312 h, 1000 g/ha, after 13 days, read-out: evaluation (100=total damage to plant; 0=no damage to plant)
I'd be grateful if you could share measured pest or weed control at 1000 g/ha for these entries.
Numbers only, in %.

The following molecules have reported results that may help.
COc1ccc(C(F)(F)C(=O)O)c([N+](=O)[O-])c1F 30
O=C(O)C(F)(F)c1cccc(Cl)c1C1CC1 0
O=C(O)C(F)(F)c1ccccc1OC(F)(F)F 20
COC(=O)c1c(Cl)cccc1C(F)(F)C(=O)O 0
COC(=O)C(F)(F)c1c(Cl)cccc1OC 0
COc1c(F)ccc(C(F)(F)C(=O)O)c1F 0

Report pest or weed control at 1000 g/ha for each item below.
1. COC(=O)C(F)(F)c1c(Cl)ccc(Cl)c1OC
2. Cc1c(C#N)cccc1C(F)(F)C(=O)O
3. COCc1c(Cl)cccc1C(F)(F)C(=O)O
4. COC(=O)C(F)(F)c1c(Cl)ccc2cc(Cl)cnc12
5. COc1cccc(C(F)(F)C(=O)O)c1C
6. COc1c(C)cccc1C(F)(F)C(=O)O
7. O=C(O)C(F)(F)c1cccc(Cl)c1OC(F)F

[10, 90, 20, 20, 10, 0, 30]
